Below, each entry is listed with its recorded TGI.
tested on: SK-MEL-5 melanoma; assay: NCI tumour cell line growth inhibition, 48 h

For orientation, consider the following solved cases.
{"columns": ["Compound", "System", "Data value"],
 "data": [
  ["CCOC(CCCNCCCn1c2c(c3cc(OC)c(OC)cc3c1=O)C(=O)c1cc3c(cc1-2)OCO3)OCC", "SK-MEL-5 melanoma", "14.3 µM"],
  ["COc1ccc(C2=Nn3c(nc4sc(C)c(C)c4c3=O)SC2)cc1", "SK-MEL-5 melanoma", "> 100 µM"]
]}

Requested read-out: TGI. Entry: C=C[C@]1(O)CCC[C@]2(C)C(=O)CCC12C (stereo partly drawn)
> 100 µM

Hello, the source for this data is PubChem BioAssay (NCI), in case you need it.
